# System: PPARg DBDmut:RXRa IVT, anti-PPARg (DBD mutation: PPARg1 K132A/R137A, NR concentration 270 nM, RXRa partner concentration 90 nM)
# method: PBM binding z-score (relative to random genomic background probes); higher = stronger binding; sequences stand for … in GC…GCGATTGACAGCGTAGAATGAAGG
Tick satisfied if PBM binding z-score is 1 or greater. Tick not satisfied if PBM binding z-score is less than 1.

| entry-sequence | category-label |
| --- | --- |
| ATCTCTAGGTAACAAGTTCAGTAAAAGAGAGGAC | satisfied |
| ATTGAAAGGTCGAGGTGAGTATAGAGAAAGGGAA | satisfied |
| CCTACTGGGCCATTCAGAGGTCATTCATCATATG | not satisfied |
| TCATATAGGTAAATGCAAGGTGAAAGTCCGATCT | not satisfied |
| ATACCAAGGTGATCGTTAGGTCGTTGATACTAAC | not satisfied |
| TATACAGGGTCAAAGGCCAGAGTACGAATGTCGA | satisfied |
| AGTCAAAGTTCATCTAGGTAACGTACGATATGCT | satisfied |
| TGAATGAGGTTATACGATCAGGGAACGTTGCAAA | not satisfied |
| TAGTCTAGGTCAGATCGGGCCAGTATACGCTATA | satisfied |
| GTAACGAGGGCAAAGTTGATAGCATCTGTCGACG | not satisfied |
| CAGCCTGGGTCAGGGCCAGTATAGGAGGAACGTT | not satisfied |
| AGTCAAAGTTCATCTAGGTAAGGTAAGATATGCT | satisfied |
| TCTTGTAGATCAGCAGGTTTAGAAAGCTGGCCAA | not satisfied |
| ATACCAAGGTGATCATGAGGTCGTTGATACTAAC | not satisfied |
| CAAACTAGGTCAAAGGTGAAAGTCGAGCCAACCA | satisfied |
| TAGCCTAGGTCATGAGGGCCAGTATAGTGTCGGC | not satisfied |
| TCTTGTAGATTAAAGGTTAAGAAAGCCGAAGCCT | not satisfied |
| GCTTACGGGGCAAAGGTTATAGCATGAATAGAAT | not satisfied |
| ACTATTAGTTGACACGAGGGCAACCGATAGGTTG | not satisfied |
| GCGTGTAGATCAAGGTTAAGAAAGACTAAGCTAA | not satisfied |
| CCAGACAGGTGAGAAGGTATCTCAGCCTCGATTA | not satisfied |
| GCATATAGGTAATACAAGGTGAAAGTGCGATTGT | satisfied |
| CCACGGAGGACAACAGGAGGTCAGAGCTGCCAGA | not satisfied |
| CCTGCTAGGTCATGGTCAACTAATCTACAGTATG | not satisfied |
| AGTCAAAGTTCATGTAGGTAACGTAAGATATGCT | satisfied |
| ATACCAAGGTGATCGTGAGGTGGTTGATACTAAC | not satisfied |
| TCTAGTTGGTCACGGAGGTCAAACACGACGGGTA | not satisfied |
| ACTAGTAGGCCAAGTTTGGGTCACTCAAACAAAG | not satisfied |
| TCGAGTAGGTTACCAATGAGGCATTCAGCTTTCT | not satisfied |
| CTACCAAGGTGCACAAGGTCGTTGATTACTATTC | not satisfied |
| ATCTCTAGGTACAGATAGTTCAGTGAATGCAAAT | satisfied |
| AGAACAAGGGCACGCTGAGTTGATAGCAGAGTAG | not satisfied |
| TTACCAAGGCGAAAGGTCGTTGATGCACGCCTTG | not satisfied |
| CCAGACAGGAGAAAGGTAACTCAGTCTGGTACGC | not satisfied |
| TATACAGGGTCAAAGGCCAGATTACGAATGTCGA | satisfied |
| CGAACTAGGTCAAGGTCAAAGTCGGTTTGTGCCA | satisfied |
| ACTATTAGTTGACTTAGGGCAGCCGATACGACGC | satisfied |
| TCTGCTAGGTCAACGATGGTCAGCCAATCTGCTA | not satisfied |
| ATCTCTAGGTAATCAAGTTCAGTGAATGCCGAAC | not satisfied |
| TCTGCTAGGTCAGTTGGTCAGCGAACGAGCTGCC | not satisfied |
| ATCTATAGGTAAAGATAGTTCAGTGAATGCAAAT | not satisfied |
| CCTAGCAGGCCAGGGTAACTCAAGCATTTCGCTT | not satisfied |

Origin of values: the supplement of paper PMC6555819
